test system: K-562 leukemia; assay: NCI-60 one-dose screen, 48 h; details: 10 µM unless noted
This is part of a sample that, as a whole, favours compounds with a hit. Of some 83,000 tested, about 20% had one in any assay. The source made the active and inactive calls. Rule for the calls: active = growth percent below 10; inactive = the rest.
The reply should be one of these categories: active, inactive

Use these answered entries as a reference point.
compound | category
Nc1ncnc2c1c(-c1ccc(Oc3ccccc3)cc1)nn2C[C@H]1SSC[C@@H]1O | active
COc1ccc(NC(=O)Nc2ccc(-c3ccc(OC)c(OC)c3)nc2C)cc1 | inactive
COc1cc(NC(C)CCCN2C(=O)c3ccccc3C2=O)c2nccc(C)c2c1OC (centres undefined) | inactive

Now for a further compound.
Assay result, entry O=C(C[n+]1cccc(Br)c1)c1ccc2c(c1)CCCC2 — outcome?
inactive
